# Tested on: OVCAR-8 ovarian
# experiment.description: NCI-60 one-dose screen, 48 h (100 = growth as untreated, 0 = no growth, -100 = all killed)
# applied.conditions: 10 µM unless noted
This is part of a sample that, as a whole, favours compounds with a hit. Of some 83,000 tested, about 20% had one in any assay. The source made the active and inactive calls. How the source made its calls: active means growth percent below 10; inactive means the rest.
reported.endpoint: growth

Reference set, count: 3
O=C(NN1C(=O)CSC1c1ccc(Cl)cc1)c1[nH]c2ccc(F)cc2c1-c1ccccc1 (stereo not given) ... 35.2% (inactive)
O=NN(C(=O)NC1CCC(C(=O)O)CC1)C1CCC(C(=O)O)CC1 (stereo not given) ... 99.7% (inactive)
O=c1oc2ccc(Cl)cc2c(=O)n1-c1ccc(Cl)cc1F ... 8.62% (active)

Given the compound `Cc1c(-c2noc(-c3ccc([N+](=O)[O-])cc3)n2)no[n+]1[O-]` , what is its reported growth?
107% (inactive)

Given the compound `COc1ccc2c(c1)C=C1CSCC3=Cc4cc(OC)ccc4OC13O2` , what is its reported growth?
25.4% (inactive)

* * *

# System: OVCAR-4 ovarian
# experiment.description: NCI-60 one-dose screen, 48 h (100 = growth as untreated, 0 = no growth, -100 = all killed)
# applied.conditions: 10 µM unless noted
This is part of a sample that, as a whole, favours compounds with a hit. Of some 83,000 tested, about 20% had one in any assay.
Response field class: string, computed from recorded growth by ranges L: < 30%; M: ≥ 30% and < 80%; H: ≥ 80%

O=C1c2ccccc2C(=O)c2c1ccc1[nH]c(CCl)nc21 ... L
COc1ccc(-c2nsc3c2NC(=O)CC3c2ccsc2)cc1 (stereo unspecified) ... M
CCOC(=O)CSc1c(-c2ccccc2)c2cc(Cl)ccc2[nH]c1=O ... H
CC(=O)c1ccc(Nc2nc(NCCO)nc(Nc3ccc(Cl)cc3)n2)cc1 ... H
Clc1ccc(COc2ccc(Nc3ncnc4onc(-c5ccccc5)c34)cc2)cc1 ... L
O=C(Nc1ccc(Cl)cc1)c1cc2ccccc2cc1OP(=O)(O)O ... L

Sort into band: COc1cccc(C(=O)NC(c2ccc(C)cc2)c2cc(Cl)c3cccnc3c2O)c1 (stereo unspecified)
L

Sort into band: `O=C(/C=C/c1ccc(Cl)cc1)c1ccc(Nc2nc(NCCO)nc(Nc3ccc(Cl)cc3)n2)cc1`
M

Sort into band: `CCOc1ccccc1CN1CCc2nc3cc(C(C)(C)C)[nH]n3c(=O)c2C1`
H

Sort into band: `Clc1ccc(Nc2nnc(-c3ccc4c(c3)OCO4)o2)cc1`
H

Sort into band: O=C1CCC(N2C(=O)c3cccc(NCCCCCCOc4ccc(Nc5nccc(Nc6ccccc6)n5)cc4)c3C2=O)C(=O)N1 (stereo unspecified)
M

Sort into band: `CCOC(=O)c1c2c(c(C)n1Cc1ccc(OC)cc1)-c1oncc1CC2`
H

Sort into band: `COc1ccc2occ(C3=C(c4c[nH]c5ccccc45)C(=O)NC3=O)c2c1`
L

Sort into band: `C[C@@H](C(=O)NCCCC#Cc1cnc(Nc2ccc(C#N)cc2)nc1NC1CC1)N(C)C(=O)/C=C/CN(C)C`
M

Sort into band: CCCSC1=NC2C(N(CC)C(=O)N2CC)N1/N=C/C=C/c1ccccc1[N+](=O)[O-] (stereo unspecified)
M

Sort into band: `Brc1ccc(Oc2ccc(Nc3ncnc4onc(-c5ccccc5)c34)cc2)cc1`
H

Sort into band: `O=C1/C(=C/c2ccc(O)cc2)COc2ccc(O)c(O)c21`
M

* * *

# Test system: SF-295 CNS
# experiment.description: NCI-60 one-dose screen, 48 h
# applied.conditions: 10 µM unless noted
About 83,000 compounds went through this panel and 20% of them were active in at least one assay; those are over-represented in the sample as a whole. Calls of active or inactive are those of the source. The calls were made as follows: active = growth percent below 10; inactive = the rest.
Lab note: assign the record to one of 1 = active, 0 = inactive

COc1cc(C(=O)NN=C2c3ccccc3-c3ccccc32)cc(OC)c1OC ... 1
CCN1CCN(c2cc(C)c3cc(NC(=O)c4ccc(OC)c(OC)c4)ccc3n2)CC1 ... 0
CN(C)CCNc1cc(-c2ccccc2)nc2ccccc12 ... 1
Cn1cc(-c2ccc3ncc(-c4ccc(CC(=O)Nc5cc(C(C)(C)C)no5)cc4)nc3c2)cn1 ... 0
COc1ccc(/C=C2/SC(=O)N(CC(=O)N3CCN(c4cc5c(cc4F)c(=O)c(C(=O)O)cn5C4CC4)CC3)C2=O)cc1 ... 0

Please share the test call associated with `O=C(/C=C/c1cccc(Cl)c1)OCc1ccc2cc1OCC#C/C=C\C#CCO2` .
0

Please share the test call associated with `O=C(N/N=C/c1ccccc1O)C(=O)Nc1ccc(F)cc1` .
1

Please share the test call associated with `NC1(N2SC(S)=C3CCCC=C32)CCCCC1` .
0

Please share the test call associated with `O=C1C(Cl)=C(NCc2ccco2)C(=O)c2ccccc21` .
0

Please share the test call associated with O=C(O)CCCN1C(=O)C2C3CCC(C3)C2C1=O (stereo not drawn) .
0

Please share the test call associated with `S=C1CCCC(=S)N1` .
0

* * *

# System: MDA-MB-231 breast
# experiment.description: NCI-60 one-dose screen, 48 h (100 = growth as untreated, 0 = no growth, -100 = all killed)
# applied.conditions: 10 µM unless noted
This is part of a sample that, as a whole, favours compounds with a hit. Of some 83,000 tested, about 20% had one in any assay.
Response field class: string, computed from recorded growth by ranges low (below 30%), intermediate (30% to below 80%), high (80% or more)

Observe how each entry below is paired with its result.
CC1=CCC(OC(=O)C(C)(C)CCC(O)(C(=O)OC2(C(C)C)CCC3(C)OC3C2)C(C)C)(C(C)C)CC1 (stereo unspecified) ... low
O=C(Cn1cc(COc2ncnc3c2cnn3-c2ccccc2)nn1)Nc1cccc2ccccc12 ... high
CC(=O)c1ccc(NC(=O)Nc2ccc(S(=O)(=O)Nc3ccc(Cl)nn3)cc2)cc1 ... high
O=c1c2cc(F)ccc2sc2c(NCCCNCCO)nc3ccc(Cl)cc3c12 ... low
COc1ccc2[nH]c(O)c(N=NC(=O)c3oc4ccccc4c3C)c2c1 ... low
COc1nc2c(c(=O)n1C)N=C1c3ccccc3C(=O)C1C(c1ccccc1)N2 (stereo unspecified) ... high
CCCCCCCCCCCCCCn1cc(C2=C(c3coc4ccc(OC)cc34)C(=O)NC2=O)c2ccccc21 ... high
CN1C(=O)N(C)C2Nn3c(s/c(=C\c4ccc(Cl)cc4Cl)c3=O)=NC21 (stereo unspecified) ... intermediate
O=C(COc1cc(O)c2c(=O)cc(-c3ccccc3)oc2c1)Nc1ccccc1C(F)(F)F ... low
CCCCCCC(O)(c1ccc(F)cc1)C(CN1CCOCC1)c1ccccc1 (stereo unspecified) ... low

// switching to the query compound
Sort into band: `O=C(NCCCN1CCC(N2CCCCC2)CC1)C1=Cc2cc(Br)ccc2OC1`
low

* * *

# System: A549/ATCC NSCLC
# experiment.description: NCI-60 one-dose screen, 48 h
# applied.conditions: 10 µM unless noted
Compounds without any hit were thinned out: in the full panel of roughly 83,000, 20% have a hit. Activity calls are given as the source filed them. Rule for the calls: active = growth percent below 10; inactive = the rest.
Lab note: assign the record to one of true = active, false = inactive

Observe how each entry below is paired with its result.
Cc1nn(-c2nc3ccccc3[nH]2)c2c1C(c1ccc(OCC(N)=O)cc1)CC(=O)N2 (stereo not given) ... false
O=C(CCc1nnc2sc(COc3ccccc3)nn12)c1nc2ncccc2[nH]1 ... false
CN(CCc1ccccc1)C(=S)N(C(=O)c1ccc([N+](=O)[O-])cc1)c1ccc(Cl)cc1 ... false
COc1cc2nc(-c3cnc(N(C)C)nc3)nc(NC3CCN(Cc4ccccc4)CC3)c2cc1OC ... true
O=C(NC1CCN(Cc2ccccc2)CC1)c1cc(C(=O)NC2CCN(Cc3ccccc3)CC2)cc(C(=O)NC2CCN(Cc3ccccc3)CC2)c1 ... false

Please share the test call associated with `O=c1oc2ccc(Cl)cc2c(=O)n1-c1ccc(I)cc1F` .
true

Please share the test call associated with `CNC(=O)c1cc(Oc2ccc(CC(=O)Nc3cc(C(C)(C)C)cn3C)cc2)ccn1` .
false

Please share the test call associated with `CCOC(=O)c1sc(-c2ccc(OS(=O)(=O)c3cccs3)c(C=O)c2)nc1C` .
false

Please share the test call associated with `O=C1NC(=S)NC(=O)C1=Cc1cn(Cc2cn(Cc3cccc4ccccc34)nn2)c2ccccc12` .
false

Please share the test call associated with `Fc1cccc(COc2ccc(Nc3ncnc4onc(-c5ccccc5)c34)cc2)c1` .
false

Please share the test call associated with `O=c1oc2ccc(I)cc2c(=O)n1-c1ccc(I)cc1F` .
true

Please share the test call associated with `COc1ccc(-c2nc(-c3ccccn3)c(-c3ccccn3)n2CC(C)C)cc1OC1CCCC1` .
true

Please share the test call associated with `O=c1c2cc(F)ccc2sc2c(NCCN3CCCC3)nc3ccccc3c12` .
false

Please share the test call associated with `NCCNc1nc2ccc(F)cc2c2c(=O)c3cc(F)ccc3sc12` .
false

Please share the test call associated with COc1cc(C(C)n2cc(-c3ccccc3)nn2)ccc1OC1CCCC1 (stereo not given) .
false
